All figures here come from patent US20240174727A1.

- SYSTEM NAME: rat NPRA (Rattus norvegicus, UniProt P18910)
- Construct: Full-Length cDNA Cloning and Generation of Cell Lines Overexpressing Natriuretic Peptide Receptors (NPRs); expressed in transfected cells; host or cells: Jump-in T-Rex HEK293 cells, pJTI R4 CMV-TO MCS pA vector, tetracycline induction
- Sequence (P18910 29-1057): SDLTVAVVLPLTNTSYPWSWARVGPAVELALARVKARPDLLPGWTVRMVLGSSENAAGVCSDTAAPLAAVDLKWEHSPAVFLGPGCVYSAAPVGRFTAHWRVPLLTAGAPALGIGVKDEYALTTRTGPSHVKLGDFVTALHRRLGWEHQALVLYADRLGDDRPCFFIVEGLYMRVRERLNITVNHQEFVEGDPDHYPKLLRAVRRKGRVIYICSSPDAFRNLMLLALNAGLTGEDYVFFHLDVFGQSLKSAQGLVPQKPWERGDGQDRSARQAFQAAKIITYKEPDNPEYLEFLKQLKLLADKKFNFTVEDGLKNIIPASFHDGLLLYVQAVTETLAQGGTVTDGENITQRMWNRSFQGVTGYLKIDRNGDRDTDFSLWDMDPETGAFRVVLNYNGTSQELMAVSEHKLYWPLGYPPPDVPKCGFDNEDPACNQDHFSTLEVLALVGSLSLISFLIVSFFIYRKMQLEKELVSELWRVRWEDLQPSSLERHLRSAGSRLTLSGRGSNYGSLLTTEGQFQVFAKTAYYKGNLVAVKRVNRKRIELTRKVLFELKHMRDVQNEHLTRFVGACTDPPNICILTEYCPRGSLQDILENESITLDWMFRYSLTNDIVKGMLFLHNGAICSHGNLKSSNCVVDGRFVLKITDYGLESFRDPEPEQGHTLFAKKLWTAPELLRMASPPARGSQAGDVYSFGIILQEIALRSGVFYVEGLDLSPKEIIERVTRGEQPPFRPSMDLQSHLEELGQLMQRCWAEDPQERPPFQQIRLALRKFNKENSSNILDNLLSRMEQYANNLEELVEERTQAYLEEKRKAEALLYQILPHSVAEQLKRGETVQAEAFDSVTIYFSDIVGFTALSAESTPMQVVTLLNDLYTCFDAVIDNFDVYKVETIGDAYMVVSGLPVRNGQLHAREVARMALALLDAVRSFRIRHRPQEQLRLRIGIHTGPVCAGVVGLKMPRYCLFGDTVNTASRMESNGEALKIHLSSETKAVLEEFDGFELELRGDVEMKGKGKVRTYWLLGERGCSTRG
- PROTOCOL DESCRIPTION: Rat NPRA cGMP activity assay (HTRF) in HEK293 cells overexpressing NPRA
- Assay type: cell-based
- PARTICULARS: cGMP Assay (EC50, pM) w/Casein rNPRA, assay buffer with 0.1% casein
Numbered stars: 1 amine (or outer) side, 2 acyl side, 3 side chain; on linkers, the order of the positions; unused ones are H or OH. Bridge positions count the residues as written; N and C are the ends. Square brackets hold non-standard residues; d marks the D form. * marks the point of attachment. C20 diacid = O=C(O)CCCCCCCCCCCCCCCCCCC(=O)*; γGlu = O=C(O)[C@H](CCC(=O)[*:2])N[*:1]; 4Pal = N[C@@H](Cc1ccncc1)C(=O)O; CH2 = C([*:1])[*:2]
MEASURED ENDPOINT: EC50 (pM)
# value in pM; strip the unit string

substance="{C20 diacid-γGlu}-EKEKEKGEKPRSSCFGKRIDRIGHQSGLGCPSFRHGSGSPSSGAPPPSG-NH2 (linker 14-30 via CH2) [Example 131]" measured_endpoint=EC50 units=pM measured=2160

query: Look at this substance and give its reported EC50. {C20 diacid-γGlu}-EKEKEKGS[4Pal]RRSSCFGGRIGRIGHQSGLGCPSFRHGGPSSGAPPPS-NH2 (disulfide 14-30) [Example 29]
result: 16800
